Cited source for all entries: paper PMC12922749

biological target: Nur77; test: SPR; assay type: binding
observable: Kd (µM)

INSERT INTO assay_data (smilesrepresentation, reading) VALUES
  ('CCCCCCCC(=O)c1c(O)cc(O)cc1CC(=O)OCC', 28.9);

====

target: Nur77; experiment: SPR; assay type: binding
observable: Kd (nM)

INSERT INTO assay_data (compound, unitssymbol, reading) VALUES
  ('CCCCC/C=C\C[C@@H](O)/C=C/C=C\C/C=C\CCCC(=O)O [12R-HETE]', 'nM', 1440);

====

biological target: Nur77; experiment: SPR; type: binding
observable: Kd (µM)

INSERT INTO assay_data (molecule, observable, unitssymbol, reading) VALUES
  ('CCCCC/C=C\C[C@H](O)/C=C/C=C\C/C=C\CCCC(=O)O [12S-HETE]', 'Kd', 'µM', 13.9);
